Values from PubChem BioAssay (NCI)

Test system: SN12C renal
EXPERIMENT: NCI tumour cell line growth inhibition, 48 h
METRIC_NAME: TGI

Use the examples below as a reference point.
Cn1c(-c2nonc2N)nc2cnccc21 | > 25 µM
CC1=C(CCCOC(=O)NCCCl)C2=C(C)C3(CC3)[C@@](C)(O)C(=O)C2=C1 | > 100 µM

Q) Please look up its TGI: "CSc1c(C(=O)Nc2ccc(C)cc2)c(N)[nH]c(=O)c1C#N"
A) > 100 µM

---

Tested on: NCI-H23 lung
EXPERIMENT: NCI tumour cell line growth inhibition, 48 h
METRIC_NAME: TGI

Below, each entry is followed by its recorded TGI result.
O=C(N/N=C/c1cccc(O)c1O)N/N=C/c1cccc(O)c1O | > 100 µM
Cc1cccc2c3ccc4c(c3n(C)c12)C(=O)C=CC4=O | 57.8 µM
Cc1oc2nc(N(C)C)n3nnnc3c2c1C | > 100 µM
N#CC(C#N)=C1CCCS(=O)(=O)c2ccccc21 | > 100 µM
Cc1cc2cccc(Cl)c2nc1C(=O)c1ccccc1 | > 100 µM

Q) Query (compound): "Nc1ncnc2c1ncn2C(=O)NC12CC3CC(CC(C3)C1)C2" ; field requested: TGI
A) > 100 µM

Q) GET /values?readout=TGI&item= "N#Cc1c2c(c(Nc3ccc(F)cc3)n3c1nc1ccccc13)CCC2"
A) 17.6 µM

Q) Please give the measured TGI for this compound: "NS(=O)(=O)c1ccc(-n2nc(-c3ccc(Br)cc3)ccc2=O)cc1"
A) > 10 µM

Q) Could you tell me which TGI is on file for "CN(O)C(=O)Cc1ccc(OCc2cccc(Cl)c2)cc1" ?
A) > 100 µM

Q) What measured TGI goes with "CC(=O)/C=C/c1cccc(N=S)c1" ?
A) > 92.7 µM

Q) Would you kindly share the measured TGI for "CN1CN(c2ccccc2)C2(CCN(CCCC3(c4cccs4)OCCO3)CC2)C1=O" ?
A) > 100 µM

Q) // lookup TGI for "CCOC(=O)c1cnc2[nH]ccn2c1=O"
A) > 10 µM
